Origin of measurements: PubChem BioAssay (NCI)

Test system: UACC-257 melanoma
Measurement Notes: NCI tumour cell line growth inhibition, 48 h; in the data active means GI50 below about 0.43 µM; inactive means the rest
Assign a class; possible classes are active, inactive

Problem: Could you kindly confirm the outcome this assay logged for `CN(C)c1ccc(/C=C/c2cc[n+](C)c(/C=C/c3ccc(N(C)C)cc3)c2)cc1` ?
Solution: active

Problem: Write down the call the test reported for this molecule. Item: `Cc1cnc(C(=O)Nc2nc3ccc(S(=O)(=O)Nc4ccc(C5(C(F)(F)F)CC5)cc4)cc3[nH]2)cn1`
Solution: inactive

Problem: Query: recorded result category for `O=c1c(-c2ccccc2)coc2cc(OC/C(=N/O)c3ccccc3)ccc12` in this test
Solution: inactive

Problem: Which outcome was assigned to COc1cc(C2CC(c3ccc(Nc4ccnc5cc(Cl)ccc45)cc3)=NN2c2ccc(Cl)cc2)cc(OC)c1OC (configuration not stated) in this test?
Solution: inactive

Problem: I'd appreciate the recorded outcome for `CN(C)CCCNC(=O)c1cc(NC(=O)c2cc(NC(=O)CCNS(=O)(=O)c3ccc4c(c3)C(=O)c3ccccc3C4=O)cn2C)cn1C` from this test.
Solution: inactive

Problem: Record request — test call for `CCN1CCN(CC(=O)N2c3cccc4cccc(c34)N(C(=O)CN3CCN(CC)CC3)C2c2cn(-c3ccccc3)nc2-c2cccc([N+](=O)[O-])c2)CC1`
Solution: inactive

Problem: // outcome(item) with item = `Cc1ncc(C(=O)Nc2ccc(CN3CCN(C)CC3)c(C(F)(F)F)c2)cc1C#Cc1cnc(N)cc1C#N`
Solution: active

Problem: Lab log entry: `C#CCOc1cccc(Nc2ncnc3cc(NC(=O)CCl)ccc23)c1` — outcome as called in the assay?
Solution: inactive

Problem: Assay result, entry `CCOC(=O)c1c2c(n3ccccc13)C(=O)c1ncccc1C2=O` — outcome?
Solution: active

Problem: // return assay outcome for `O=C(/C=C/c1ccc(C(F)(F)F)cc1)c1ccc(Nc2nc(NCCO)nc(Nc3ccc(Cl)cc3)n2)cc1`
Solution: inactive

Problem: Please indicate how the test categorized `O=C(OC[C@H]1O[C@H](OC(=O)c2cc(O)c(O)c(OC(=O)c3cc(O)c(O)c(O)c3)c2)[C@H](OC(=O)c2cc(O)c(O)c(OC(=O)c3cc(O)c(O)c(O)c3)c2)[C@@H](OC(=O)c2cc(O)c(O)c(OC(=O)c3cc(O)c(O)c(O)c3)c2)[C@@H]1OC(=O)c1cc(O)c(O)c(OC(=O)c2cc(O)c(O)c(O)c2)c1)c1cc(O)c(O)c(OC(=O)c2cc(O)c(O)c(O)c2)c1` .
Solution: inactive

Problem: Please state the recorded outcome for this molecule: C=C1CC2(OC1=O)C(=O)Nc1ccccc12 (configuration not stated)
Solution: inactive
